Values from ChEMBL document CHEMBL1136493

# Tested on: CCRF-CEM
# procedure summary: Cytostatic concentration required to inhibit CEM cell proliferation by 50%
# Assay type: functional
# recorded conditions: Homo sapiens
measure: CC50 (µM)

• NCCOCCOCCN1CC23C4=C5c6c7c8c9c(c%10c%11c%12c%13c%14c%15c%16c%17c%18c%19c%20c%21c%22c%23c(c6c6c%22c%22c%20c(c%15%19)c%13c(c%129)c%22c86)C5C5C6c8c9c(c-%17c%12c8C5C%23C%21C%12%18)C5c8c-9c(c2c-%10c8C%112CN(CCOCCOCCN)CC%142C%165)C46)C73C1 (stereo not drawn) = 9.6
• NCCOCCOCCN1CC23C4=c5c6c7c8c9c%10c%11c%12c%13c%14c%15c%16c%17c%18c%19c%20c%21c%22c(c2c%20c2c%20c%23c%24c(c5c7c5c9c7c%11c(c%12%16)c9c%17c(c%192)c%23c9c7c%245)C%203C1)C4C1C=6C2c3c1c-%22c(c-%14c3C%13C%10C82)C%211CN(CCOCCOCCN)CC%15%181 (stereo not drawn) = 7.4
• C[N+]1(CCOCCOCCN)CC23C4=C5c6c7c8c9c(c%10c%11c%12c%13c%14c%15c%16c%17c%18c%19c%20c%21c%22c%23c(c6c6c%22c%22c%20c(c%15%19)c%13c(c%129)c%22c86)C5C5C6c8c9c(c-%17c%12c8C5C%23C%21C%12%18)C5c8c-9c(c2c-%10c8C%112C[N+](C)(CCOCCOCCN)CC%142C%165)C46)C73C1 (stereo not drawn) = 6.59
